System Tested: TREK-2 (Rattus norvegicus, UniProt Q9JIS4)
Sequence (Q9JIS4 1-538): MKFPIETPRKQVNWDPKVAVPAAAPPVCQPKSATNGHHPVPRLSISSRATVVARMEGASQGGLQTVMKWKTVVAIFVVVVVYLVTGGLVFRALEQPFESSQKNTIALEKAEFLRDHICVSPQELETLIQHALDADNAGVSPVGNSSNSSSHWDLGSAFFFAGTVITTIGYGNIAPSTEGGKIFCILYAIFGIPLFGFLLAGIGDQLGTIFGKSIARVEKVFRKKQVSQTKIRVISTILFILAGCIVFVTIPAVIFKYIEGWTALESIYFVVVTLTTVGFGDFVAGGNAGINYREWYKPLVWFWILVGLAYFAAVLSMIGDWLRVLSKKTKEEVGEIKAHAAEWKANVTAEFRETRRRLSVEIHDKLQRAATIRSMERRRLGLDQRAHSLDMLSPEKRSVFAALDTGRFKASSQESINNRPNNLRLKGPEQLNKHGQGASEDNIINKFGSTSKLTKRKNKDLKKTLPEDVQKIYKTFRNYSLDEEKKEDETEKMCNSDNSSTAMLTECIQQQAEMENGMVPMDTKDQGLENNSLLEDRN
Method Notes: whole-cell patch clamp, HEK293, voltage ramp, current at +[…] mV
Property Name: IC50 (µM)

{"Compound": "CN(C)CCC[C@@]1(c2ccc(F)cc2)OCc2cc(C#N)ccc21 [escitalopram]", "Unit Annotation": "µM", "Result": 102}
{"Compound": "CN(C)CCC=C1c2ccccc2CCc2ccccc21 [amitriptyline]", "Unit Annotation": "µM", "Result": 16}
{"Compound": "CN(C)CCCC1(c2ccc(F)cc2)OCc2cc(C#N)ccc21 (stereo not drawn) [citalopram]", "Unit Annotation": "µM", "Result": 110}
